Data origin, for the record: patent US20190153078A1

Assignment: determine reported TEER NT50, nM (T-84 cells) for the given binders.
molecular target: C. difficile toxin A from strain VPI10463 (ATCC 43255), toxinotype 0 (Clostridium difficile, UniProt P16154 1-2710); test: cell-based or functional assay
Sequence (P16154 whole entry): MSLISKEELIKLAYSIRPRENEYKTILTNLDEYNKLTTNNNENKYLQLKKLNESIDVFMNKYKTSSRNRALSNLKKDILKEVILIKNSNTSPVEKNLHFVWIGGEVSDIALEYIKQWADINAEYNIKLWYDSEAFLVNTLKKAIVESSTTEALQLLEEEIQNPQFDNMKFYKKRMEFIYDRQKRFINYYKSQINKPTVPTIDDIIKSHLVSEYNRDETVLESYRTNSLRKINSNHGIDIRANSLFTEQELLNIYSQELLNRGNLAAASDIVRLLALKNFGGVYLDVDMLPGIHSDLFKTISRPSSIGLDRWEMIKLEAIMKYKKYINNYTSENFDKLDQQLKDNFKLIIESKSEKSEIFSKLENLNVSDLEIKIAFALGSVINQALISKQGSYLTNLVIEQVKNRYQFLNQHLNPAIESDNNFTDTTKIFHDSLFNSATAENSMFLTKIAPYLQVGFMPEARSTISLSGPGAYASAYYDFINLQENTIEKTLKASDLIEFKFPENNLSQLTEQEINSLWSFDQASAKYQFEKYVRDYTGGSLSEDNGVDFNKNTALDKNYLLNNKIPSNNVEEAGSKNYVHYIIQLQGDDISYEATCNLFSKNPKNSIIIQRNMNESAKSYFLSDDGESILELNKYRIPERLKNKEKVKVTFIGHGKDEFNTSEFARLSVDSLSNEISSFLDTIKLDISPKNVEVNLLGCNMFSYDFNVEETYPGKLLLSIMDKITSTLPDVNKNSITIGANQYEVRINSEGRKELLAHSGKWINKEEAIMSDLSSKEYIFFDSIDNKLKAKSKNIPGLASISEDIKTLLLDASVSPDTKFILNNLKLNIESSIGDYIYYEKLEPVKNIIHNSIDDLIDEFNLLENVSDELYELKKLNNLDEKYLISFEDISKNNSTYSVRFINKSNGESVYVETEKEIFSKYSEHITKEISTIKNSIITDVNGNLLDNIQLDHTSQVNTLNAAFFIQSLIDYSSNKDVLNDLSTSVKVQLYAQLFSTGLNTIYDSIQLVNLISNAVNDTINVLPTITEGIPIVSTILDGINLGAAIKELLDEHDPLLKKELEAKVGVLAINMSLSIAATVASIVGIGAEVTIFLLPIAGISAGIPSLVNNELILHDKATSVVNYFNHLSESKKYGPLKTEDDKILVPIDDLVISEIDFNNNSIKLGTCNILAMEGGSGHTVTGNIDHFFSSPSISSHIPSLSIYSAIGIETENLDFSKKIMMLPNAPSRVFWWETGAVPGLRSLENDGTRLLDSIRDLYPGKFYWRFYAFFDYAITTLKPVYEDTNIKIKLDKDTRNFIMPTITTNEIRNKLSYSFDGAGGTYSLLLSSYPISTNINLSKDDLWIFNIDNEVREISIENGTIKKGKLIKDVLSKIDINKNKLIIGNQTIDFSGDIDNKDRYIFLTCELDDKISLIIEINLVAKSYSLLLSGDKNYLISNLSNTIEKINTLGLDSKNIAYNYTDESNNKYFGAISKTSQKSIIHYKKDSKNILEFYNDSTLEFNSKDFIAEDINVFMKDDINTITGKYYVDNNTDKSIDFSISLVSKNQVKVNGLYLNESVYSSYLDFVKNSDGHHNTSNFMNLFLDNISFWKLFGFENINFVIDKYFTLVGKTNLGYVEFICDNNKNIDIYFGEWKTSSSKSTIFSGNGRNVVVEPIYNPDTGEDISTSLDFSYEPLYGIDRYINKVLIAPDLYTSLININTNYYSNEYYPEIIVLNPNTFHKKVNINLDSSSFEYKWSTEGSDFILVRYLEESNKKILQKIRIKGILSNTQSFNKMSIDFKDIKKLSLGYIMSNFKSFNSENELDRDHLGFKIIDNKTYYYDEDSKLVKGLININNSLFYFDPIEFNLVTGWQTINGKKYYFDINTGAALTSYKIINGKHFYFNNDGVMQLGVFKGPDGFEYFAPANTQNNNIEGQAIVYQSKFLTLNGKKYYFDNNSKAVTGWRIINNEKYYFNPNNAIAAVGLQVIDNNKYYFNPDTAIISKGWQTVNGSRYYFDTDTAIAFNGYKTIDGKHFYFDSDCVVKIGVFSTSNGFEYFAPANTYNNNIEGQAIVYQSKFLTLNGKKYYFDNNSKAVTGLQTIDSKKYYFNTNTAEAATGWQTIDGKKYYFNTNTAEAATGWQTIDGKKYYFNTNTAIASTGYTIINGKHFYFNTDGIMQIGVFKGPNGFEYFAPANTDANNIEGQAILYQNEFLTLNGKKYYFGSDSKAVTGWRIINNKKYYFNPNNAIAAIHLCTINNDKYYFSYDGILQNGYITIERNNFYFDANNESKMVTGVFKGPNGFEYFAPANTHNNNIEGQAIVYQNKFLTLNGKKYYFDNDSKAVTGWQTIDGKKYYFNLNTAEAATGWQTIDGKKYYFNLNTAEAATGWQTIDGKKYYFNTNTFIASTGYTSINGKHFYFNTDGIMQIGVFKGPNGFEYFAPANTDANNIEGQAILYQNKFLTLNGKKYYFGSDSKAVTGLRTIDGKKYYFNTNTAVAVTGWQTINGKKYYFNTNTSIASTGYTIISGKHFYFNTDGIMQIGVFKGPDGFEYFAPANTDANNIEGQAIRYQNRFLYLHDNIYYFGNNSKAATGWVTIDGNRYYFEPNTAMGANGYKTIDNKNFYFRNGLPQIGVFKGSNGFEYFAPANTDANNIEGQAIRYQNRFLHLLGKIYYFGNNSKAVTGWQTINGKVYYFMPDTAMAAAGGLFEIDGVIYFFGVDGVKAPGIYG
Answer with a number only, understood to be in nM.

Inquiry: Sample A3 antibody (antibody, V domains shown) VH: MQLLESGGGLVKPGGSLRLSCAASGFTFSNAWMSWVRQGPGKGLEWVGRIKSKTDGGTTDYAAPVKGRFSISRNDSNNTLFLQMNSLKTEDTAVYYCTTGPQIVVVAGATSRDQPNYYYYGLDVWGLGTTVTVSS VL: QSVLTQPPSASGTPGQRVTISCSGSSSNIGINTVNWYQQLPGTAPKLLIYKSNLRPSGVPDRFSGSKSGTSASLAISGLRSEDEADYYCAAWDDSLTGLYVFGTGTKVTVLG — what was its TEER NT50, nM (T-84 cells)?
Reply text: 1.3

Inquiry: Sample A5 antibody (antibody, V domains shown) VH: QVHLVESGGGVVQPGRSLRLSCATFGLNFSDYGFHWVRQAPGKGLEWVAVTSYDGSNKYYAEFVKGRFTISRDNYKNTVYLQMNSLRLEDTAVYYCARDLAPYNFWSGYGNNWFDPWGQGTLVTVSS VL: EIVMTQSPATLSVSPGERATLSCRASQSISSNLAWYQQKPGQAPRLLIYDASTRATGIPARFSGSGSGTEFTLTISSLQSEDFAVYYCQQYNDWLVTFGQGTKVEIKR — what was its TEER NT50, nM (T-84 cells)?
Reply text: 7.3

Inquiry: Sample A2 antibody (antibody, V domains shown) VH: QVQLQESGPGLVKPSETLSLTCTVSGGSISTYYWSWIRQSPGKGLEWMGYIYYSGSTNYNPSLESRVTIAVDTSKNQFSLQLTSVTAADTAVYYCARGAAEWLRFRGFFDSWGQGTLVTVSS VL: ENVLTQSPGTLSLSPGERATLSCRASHSVTNNFLAWYQQKPGQAPRLLIYGVSSRATGIPDRFSGSGSGTDFTLTISRLEPEDFAVYYCQQYGVSGTFGQGTKLEIKR — what was its TEER NT50, nM (T-84 cells)?
Reply text: 1.8
